B1: library; numbered along this chain (parent)
chain: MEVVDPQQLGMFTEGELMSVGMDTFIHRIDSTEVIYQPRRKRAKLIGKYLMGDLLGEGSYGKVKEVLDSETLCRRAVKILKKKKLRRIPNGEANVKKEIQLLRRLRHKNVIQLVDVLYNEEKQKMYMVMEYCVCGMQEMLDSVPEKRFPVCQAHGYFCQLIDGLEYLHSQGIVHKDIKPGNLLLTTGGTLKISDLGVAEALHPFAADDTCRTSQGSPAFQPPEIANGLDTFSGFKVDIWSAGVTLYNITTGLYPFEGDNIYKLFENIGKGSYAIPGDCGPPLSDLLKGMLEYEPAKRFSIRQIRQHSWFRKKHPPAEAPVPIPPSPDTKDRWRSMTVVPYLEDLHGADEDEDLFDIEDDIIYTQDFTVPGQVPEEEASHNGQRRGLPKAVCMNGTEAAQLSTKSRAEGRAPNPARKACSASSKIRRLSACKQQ

Variants of: B1
measurement_description: STK11 functional score (HeLa growth suppression), rescaled enrichment; synonymous median = 1, nonsense median = 0 (normalised score)
condition_set: with HeLa; variant type: missense
STK11 functional score for assorted variants
endpoint: STK11 functional score

H313A = 1.33
R405L = 1.59
A43S = 1.34
T395N = 1.4
P387C = 1.54
E265C = 1.67
I99T = 1.45
D348L = 1.3
P413R = 1.49
M129I = 0.692
R147T = -0.149
Q170E = 0.234
Y60W = 1.58
Q399F = 1.27
G135E = 1.45
K44Y = 1.46
I360S = 1.11
